Reference source for all entries: the supplement of paper PMC9732359

Assay: protein stability index of a GFP-peptide fusion (yeast GPS) (PSI 1-4); higher = more stable; sorted into four equal gates, so the index is relative within each strain
Conditions: pdr5∆
# protein stability index values compiled below
Response field accepts a number only; no unit should be typed.

>  <RESIDUE STRING>
LSDNAKTLHSQMMSKGI [RPC34]

>  <protein stability index>
3.32

$$$$

Field: next sequence
# input sequence: ENLPGLSISVAAEPMDS [SNU114] ; wanted: its protein stability index 2.91

###

Test: protein stability index of a GFP-peptide fusion (yeast GPS) (PSI 1-4); higher = more stable; sorted into four equal gates, so the index is relative within each strain
Conditions: ubr1∆
# protein stability index values compiled below
Response field accepts a number only; no unit should be typed.

The examples below pair each entry with its known result.
>  <RESIDUE STRING>
NASANSTSFSFNAPATG [YOR098C/NUP1]

>  <protein stability index>
2.96

$$$$
>  <RESIDUE STRING>
IQELEDQRDELLEQKKS [ITC1]

>  <protein stability index>
3.31

$$$$
>  <RESIDUE STRING>
KLSDIFLSKPSKALYPD [SNF2]

>  <protein stability index>
2.7

$$$$

# input sequence: VVILARAKALGIKVTNP [RPL32] ; wanted: its protein stability index 2.93

Try this sequence next: LYVLPSFNIPRLTFKPW [YMR129W/POM152] 1.54

Try this sequence next: LPEQLKSGKFCSHCGCV [SNM1] 2.7

###

Assay: protein stability index of a GFP-peptide fusion (yeast GPS) (PSI 1-4); higher = more stable; sorted into four equal gates, so the index is relative within each strain
Details: pdr5∆
# protein stability index values compiled below
Response field accepts a number only; no unit should be typed.

The examples below pair each entry with its known result.
>  <RESIDUE STRING>
LVEARSLGHQTSLITAV [MTR3]

>  <protein stability index>
1.97

$$$$
>  <RESIDUE STRING>
ISKLFLRGDSVIVVLKT [SMD2]

>  <protein stability index>
2.89

$$$$
>  <RESIDUE STRING>
KEFKGIKVTVQLKIQNR [RPL12A]

>  <protein stability index>
1.62

$$$$
>  <RESIDUE STRING>
LWNQWLKLNTSLPSKLT [SRP68]

>  <protein stability index>
1.51

$$$$
>  <RESIDUE STRING>
DINVESLTQSVCDLALR [PUP2]

>  <protein stability index>
1.91

$$$$

# input sequence: AYSPKQDEQKHNENENS [RPO21] ; wanted: its protein stability index 2.49

Try this sequence next: LIIVTRKNYMHVKNFGF [YML031W/NDC1] 1.52

Try this sequence next: RSINNLIQEHDSRKNRE [BRN1] 3.37

###

# protein stability index values compiled below
Assay: protein stability index of a GFP-peptide fusion (yeast GPS) (PSI 1-4); higher = more stable; sorted into four equal gates, so the index is relative within each strain
Conditions: ubr1∆
Response field accepts a number only; no unit should be typed.

The examples below pair each entry with its known result.
>  <RESIDUE STRING>
GIRAPKGALMYGPPGTG [RPT5]

>  <protein stability index>
1.32

$$$$
>  <RESIDUE STRING>
NGEEDEVALFSQKAKLM [YLR335W/NUP2]

>  <protein stability index>
1.17

$$$$
>  <RESIDUE STRING>
LIELLTQMDGFDQSTNV [RPT3]

>  <protein stability index>
2.05

$$$$
>  <RESIDUE STRING>
IVVAMTGKDCVAIACDL [PUP3]

>  <protein stability index>
2.31

$$$$
>  <RESIDUE STRING>
SLGFNEVFSRPEWMILT [RPO21]

>  <protein stability index>
1.21

$$$$
>  <RESIDUE STRING>
ILVDSLTGNQLPTPTPT [SWI1]

>  <protein stability index>
2.73

$$$$
>  <RESIDUE STRING>
YGITHGLTNWAAAYATG [RPL5]

>  <protein stability index>
2.26

$$$$
>  <RESIDUE STRING>
GKKSSSSTKDYLTPPHE [RET1]

>  <protein stability index>
2.85

$$$$

# input sequence: EKQIEELLDNCIETFVA [SRB6] ; wanted: its protein stability index 3.32

Try this sequence next: PINLQNGEEDEVALFSQ [YLR335W/NUP2] 3.17

Try this sequence next: MREITETIAEAKKKVLD [RPO21] 3.24

Try this sequence next: FLKERLMEASDAFRVHI [RPB2] 1.74

Try this sequence next: KESWDPNTTKTKLRAFV [YGR119C/NUP57] 2.77

Try this sequence next: TIRTRKVISNPLLARKQ [RPS24A] 1.87
